Each entry below lists one item and its recorded Papp B→A value.
system-under-test: P-gp (Homo sapiens)
Sequence (P08183 whole entry): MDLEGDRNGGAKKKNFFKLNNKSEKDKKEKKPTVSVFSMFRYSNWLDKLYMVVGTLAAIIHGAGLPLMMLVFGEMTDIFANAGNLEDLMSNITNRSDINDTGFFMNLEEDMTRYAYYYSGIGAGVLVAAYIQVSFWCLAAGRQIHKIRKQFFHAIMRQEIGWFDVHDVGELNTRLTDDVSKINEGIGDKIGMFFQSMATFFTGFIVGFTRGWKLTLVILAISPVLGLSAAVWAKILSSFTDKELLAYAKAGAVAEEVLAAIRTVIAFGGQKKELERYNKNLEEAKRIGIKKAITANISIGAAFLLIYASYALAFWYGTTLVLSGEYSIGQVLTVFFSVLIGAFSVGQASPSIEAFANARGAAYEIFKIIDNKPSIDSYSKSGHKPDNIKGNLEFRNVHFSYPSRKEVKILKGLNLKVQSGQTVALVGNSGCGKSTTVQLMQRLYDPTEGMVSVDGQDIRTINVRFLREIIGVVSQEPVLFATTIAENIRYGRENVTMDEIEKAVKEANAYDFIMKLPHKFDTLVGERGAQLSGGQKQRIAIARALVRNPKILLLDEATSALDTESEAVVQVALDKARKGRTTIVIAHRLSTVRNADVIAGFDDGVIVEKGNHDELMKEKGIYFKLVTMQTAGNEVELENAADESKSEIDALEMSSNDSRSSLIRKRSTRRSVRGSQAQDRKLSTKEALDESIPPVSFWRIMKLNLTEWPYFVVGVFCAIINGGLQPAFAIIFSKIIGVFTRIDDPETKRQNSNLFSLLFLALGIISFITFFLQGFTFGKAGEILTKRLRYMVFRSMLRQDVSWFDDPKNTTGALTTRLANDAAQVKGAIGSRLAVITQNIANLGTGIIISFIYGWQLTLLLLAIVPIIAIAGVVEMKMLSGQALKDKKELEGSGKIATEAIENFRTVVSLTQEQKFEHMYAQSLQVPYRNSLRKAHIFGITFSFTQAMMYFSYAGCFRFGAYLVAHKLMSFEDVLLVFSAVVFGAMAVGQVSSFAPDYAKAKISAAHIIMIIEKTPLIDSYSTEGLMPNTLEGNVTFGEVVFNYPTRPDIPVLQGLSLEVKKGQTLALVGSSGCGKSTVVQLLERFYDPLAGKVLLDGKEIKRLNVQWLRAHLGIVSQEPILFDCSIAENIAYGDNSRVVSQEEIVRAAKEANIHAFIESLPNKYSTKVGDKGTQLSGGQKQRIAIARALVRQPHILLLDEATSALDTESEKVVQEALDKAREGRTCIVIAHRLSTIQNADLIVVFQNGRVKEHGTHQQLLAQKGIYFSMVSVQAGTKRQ
test-name: Caco-2 transwell basolateral to apical transport of P-gp substrates
Assay type: in vitro ADME
A number alone suffices; assume ×10⁻⁶ cm/s.

COc1cccc2c1C(=O)c1c(O)c3c(c(O)c1C2=O)C[C@@](O)(C(=O)CO)C[C@@H]3O[C@H]1C[C@H](N)[C@H](O)[C@H](C)O1 [Doxorubicin, doxorubicin] ... 1.9

Field: next compound
Task: For the compound COC(=O)c1ccccc1-c1c2ccc(=N)cc-2oc2cc(N)ccc12 [R123, rhodamine 123] , what Papp B→A is on record?
Result: 8.03

Origin of measurements: paper PMC6919324
